Sourced from PubChem BioAssay AID1159580

For each entry below, report its normalized growth value.
assay: chemical genetic growth profiling, strain panel (AID 1159580);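 also: tested at 20 µM; growth read once vehicle control cultures reached saturation at 30 °C; 1 = growth at the plate median or of vehicle wells; lower values mean less growth of the strain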; conditions: S. cerevisiae deletion strains, growth OD, locus YGR252W, strain gcn5, hits give low values
The campaign covered roughly 5,500 compounds. About 2,000 (36%) were called active. Roughly 18% stayed inconclusive and do not appear here. The list shows a part of the results.
Numbers only.

compound	result value
CN(Cc1cc(Br)cc(Br)c1N)C1CCCCC1	0.84
CCCN(CCC)C(=O)C(CCC(=O)O)NC(=O)c1ccccc1 (configuration not stated)	1.13
CCOC(=O)c1ccc(N)cc1	0.959

For each of the items listed, what is its normalized growth?
1. CN(Cc1cnc2nc(N)nc(N)c2n1)c1ccc(C(=O)NC(CCC(=O)O)C(=O)O)cc1 (configuration not stated)
2. Nc1nccs1

1: 1.02; 2: 1.09

Hi, could you look up normalized growth for each item in my list?
1. CCC(CCC(C)C1CCC2C3CC=C4C[C@@H](OC(C)=O)CC[C@]4(C)C3CC[C@]12C)C(C)C (some centres not stated)
2. Nc1c(Br)cc(Br)cc1CNC1CCC(O)CC1 (configuration not stated)
3. CC(=O)OCC(=O)[C@@]12OC(C)(C)O[C@@H]1CC1C3C[C@H](F)C4=CC(=O)C=C[C@]4(C)[C@@]3(F)[C@@H](O)C[C@@]12C (some centres not stated)
4. Nc1nc2ncc(CNc3ccc(C(=O)N[C@@H](CCC(=O)O)C(=O)O)cc3)nc2c(=O)[nH]1

1. 0.941
2. 0.955
3. 1.1
4. 1.21

Could I get normalized growth for every one of these entries?
1. NC(=O)c1cnccn1
2. O=C1CN(/N=C\c2ccc([N+](=O)[O-])o2)C(=O)N1

[0.988, 0.804]

Below are some compounds; for each one, tell me its normalized growth.
1. CC[C@@H]1[C@@H](O)N2C3C[C@H]1C1C(O)[C@]4(C[C@@H]12)c1ccccc1N(C)[C@@H]34 (some centres not stated)
2. O=C(O)CNCP(=O)(O)O
3. O=C(O)CCC(=O)c1ccc(-c2ccccc2)cc1
4. Nc1ccc(S(=O)(=O)Nc2nccs2)cc1
5. CC(=O)O[C@H]1C[C@@H](OC(C)=O)C(C)(C)C2C[C@@H](OC(C)=O)[C@]3(C)C(CC[C@@]4(C)[C@H](c5ccoc5)C(=O)[C@H]5O[C@]543)[C@]21C (some centres not stated)
6. Nc1nc2c(c(=O)[nH]1)N(C=O)C(CNc1ccc(C(=O)N[C@@H](CCC(=O)O)C(=O)O)cc1)CN2 (some centres not stated)

1: 1; 2: 1.01; 3: 0.861; 4: 1.06; 5: 0.996; 6: 0.948

====

assay: chemical genetic growth profiling, strain panel (AID 1159580);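 also: tested at 20 µM; growth read once vehicle control cultures reached saturation at 30 °C; 1 = growth at the plate median or of vehicle wells; lower values mean less growth of the strain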; conditions: S. cerevisiae deletion strains, growth OD, locus YMR205C, strain PFK2
The whole screen tested about 5,500 compounds, of which about 2,000 (36%) were called active. Not shown: some 18% with an inconclusive outcome. No stated cut-off is given here; in the data, active means normalized growth mostly below about 0.91 (no sharp cut-off); inconclusive means no clear call, values can overlap the other calls; inactive means mostly above about 0.92. This is one part of the list.
# output must be one of Yes (active), No (inactive)

Solved cases below.
compound	qualitative label
COc1ccc(/C=C/C(=O)c2cc(O)ccc2O)cc1	Yes
O=c1cccc2n1C[C@H]1CNCC2C1	No
CN(Cc1cc(Br)cc(Br)c1N)C1CCCCC1	No
CC(=O)O[C@H]1C[C@@H](OC(C)=O)C(C)(C)C2C[C@@H](OC(C)=O)[C@]3(C)C(CC[C@@]4(C)[C@H](c5ccoc5)C(=O)[C@H]5O[C@]543)[C@]21C (some centres undefined)	No
COc1ccc(/C=C/C(=O)c2ccc(O)cc2O)cc1	Yes

Entry "O=C(O)CCC(=O)c1ccc(-c2ccccc2)cc1" : call = ?
No

Can you look up the reported call for "COc1ccc(CN(CCN(C)C)c2ncccn2)cc1" for me?
No

Identify the outcome logged in this assay for the compound shown: "CC12CCC(CC1)C(C)(C)O2"
No

What call does the record list for CC12CCC3C(CC=C4CC(O)CCC43C)C1CCC2=O (centres undefined) ?
Yes

Called result for "CO[C@@H]1[C@@H](O[C@@H]2O[C@H](C)[C@@H](O[C@H]3C[C@@](C)(O)[C@H](O)[C@H](C)O3)[C@H](N(C)C)[C@H]2O)[C@@H](CC=O)C[C@@H](C)[C@@H](O[C@H]2CC[C@H](N(C)C)[C@@H](C)O2)/C=C/C=C/C[C@H](C)OC(=O)C[C@H]1O"
No

# lookup: test call for CC[C@@H](C(=O)[C@@H](C)[C@@H](O)[C@H](C)[C@@H]1O[C@@H]([C@@H](CC)C(=O)O)CC[C@@H]1C)[C@H]1OC2(C=C[C@@H](O)[C@]3(CC[C@@](C)([C@H]4CC[C@](O)(CC)[C@H](C)O4)O3)O2)[C@H](C)C[C@@H]1C (some centres undefined)
Yes

Give the logged outcome of this assay for the following compound: CC(=O)O[C@H]1CC[C@@]2(C)C(=CCC3C2CC[C@]2(C)C(=O)CCC32)C1 (some centres undefined)
No

Identify the outcome logged in this assay for the compound shown: O=C(NC(=O)c1c(F)cccc1F)Nc1cc(Cl)c(OC(F)(F)C(F)C(F)(F)F)cc1Cl (centres undefined)
No

Can you look up the reported call for "C[C@](N)(Cc1ccc(O)c(O)c1)C(=O)O" for me?
No

Fill in: this test's call for CCCN(CCC)C(=O)C(CCC(=O)O)NC(=O)c1ccccc1 (centres undefined) is ___
No

Could you please tell me the result logged for "CCOC(N)=O" in this assay?
No

Per the assay record, what outcome was assigned to Cc1cccc(CN2CCN(C(c3ccccc3)c3ccc(Cl)cc3)CC2)c1 (centres undefined) ?
Yes

What is the recorded call for this compound in the test? "COc1ccc(/C=C/c2cc(O)cc(O)c2)cc1"
No

Would you mind telling me which call this test gave "O=C(O)c1cc(=O)c2c(OCC(O)COc3cccc4oc(C(=O)O)cc(=O)c34)cccc2o1" ?
No
